pKi: −log10 of the molar value.
Here we list compounds with their recorded pKi when tested on H3 receptor (Rattus norvegicus).
quantityMeasured: pKi

testsmiles=C[C@@H](NC(=O)c1ccc2c(c1)OCO2)C(=O)N1CCN(CCCOc2ccc(-c3noc(CC4CCCC4)n3)c(F)c2)CC1 valuereported=8.57
testsmiles=Cc1cc(C)cc(C(=O)N[C@H](C)C(=O)N2CCN(CCCOc3ccc(C(=O)C4CC4)cc3)CC2)c1 valuereported=8.68
testsmiles=C[C@@H](NC(=O)c1cccs1)C(=O)N1CCN(CCCOc2ccc(-c3noc(-c4ccccc4)n3)c(F)c2)CC1 valuereported=8.30
testsmiles=C[C@@H](N)C(=O)N1CCN(CCCOc2ccc(-c3ccc(C#N)cc3)cc2)CC1 valuereported=7.91
testsmiles=C[C@@H](N)C(=O)N1CCN(CCCOc2ccc(-c3noc(CC4CCCC4)n3)c(F)c2)CC1 valuereported=8.17
testsmiles=Cc1cc(C(=O)NCCC(=O)N2CCN(CCCOc3ccc(-c4noc(-c5ccccc5)n4)c(F)c3)CC2)c(C)o1 valuereported=7.34
testsmiles=COc1cccc(C(=O)N[C@H](C)C(=O)N2CCN(CCCOc3ccc(C(=O)C4CC4)cc3)CC2)c1 valuereported=8.95

###

Target: H3 receptor (Rattus norvegicus, UniProt Q9QYN8)
Sequence (Q9QYN8 1-397 isoform Q9QYN8-3): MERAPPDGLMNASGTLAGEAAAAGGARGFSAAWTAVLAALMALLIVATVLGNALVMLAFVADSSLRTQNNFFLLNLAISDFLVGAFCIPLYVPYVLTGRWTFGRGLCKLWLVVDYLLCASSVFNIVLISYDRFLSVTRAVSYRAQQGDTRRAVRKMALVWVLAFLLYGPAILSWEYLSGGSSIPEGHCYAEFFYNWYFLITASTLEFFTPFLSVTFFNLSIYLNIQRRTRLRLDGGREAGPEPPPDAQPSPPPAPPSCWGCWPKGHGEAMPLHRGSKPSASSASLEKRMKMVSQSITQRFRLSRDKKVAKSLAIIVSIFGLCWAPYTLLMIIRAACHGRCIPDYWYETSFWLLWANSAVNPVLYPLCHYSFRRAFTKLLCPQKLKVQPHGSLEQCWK
Kindly apply the following: Satisfied if Ki is less than 3 nM, Not satisfied in every other case.

testsmiles=COc1ccc(OC)c(C(=O)N[C@H](C)C(=O)N2CCN(CCCOc3ccc(C(=O)C4CC4)cc3)CC2)c1 assignedclass="Not satisfied"
testsmiles=C[C@@H](NC(=O)c1ccccc1Cl)C(=O)N1CCN(CCCOc2ccc(-c3noc(CC4CCCC4)n3)c(F)c2)CC1 assignedclass=Satisfied
testsmiles=CC(C)C(=O)N[C@H](C)C(=O)N1CCCN(CCCOc2ccc(-c3noc(CC4CCCC4)n3)c(F)c2)CC1 assignedclass=Satisfied
testsmiles=O=C(NCCC(=O)N1CCN(CCCOc2ccc(-c3noc(-c4ccccc4)n3)c(F)c2)CC1)c1ccsc1 assignedclass="Not satisfied"
testsmiles=C[C@@H](NC(=O)c1ccc(N(C)C)cc1)C(=O)N1CCN(CCCOc2ccc(-c3noc(CC4CCCC4)n3)c(F)c2)CC1 assignedclass=Satisfied
testsmiles=C[C@@H](NC(=O)c1ccco1)C(=O)N1CCN(CCCOc2ccc(C(=O)C3CC3)cc2)CC1 assignedclass=Satisfied
testsmiles=C[C@@H](NC(=O)CCN1CCOCC1)C(=O)N1CCN(CCCOc2ccc(-c3noc(-c4ccccc4)n3)c(F)c2)CC1 assignedclass="Not satisfied"
testsmiles=C[C@@H](NC(=O)c1ccco1)C(=O)N1CCN(CCCOc2ccc(-c3noc(-c4ccccc4)n3)c(F)c2)CC1 assignedclass=Satisfied
testsmiles=N#Cc1ccc(-c2ccc(OCCCN3CCCN(C(=O)[C@@H](Cc4cscn4)NC(=O)c4ccco4)CC3)cc2)cc1 assignedclass=Satisfied
testsmiles=Cc1cc(C)c(C(=O)NCCC(=O)N2CCN(CCCOc3ccc(-c4noc(-c5ccccc5)n4)c(F)c3)CC2)s1 assignedclass="Not satisfied"
testsmiles=C[C@@H](NC(=O)c1ccc(Cl)cc1)C(=O)N1CCCN(CCCOc2ccc(-c3noc(CC4CCCC4)n3)c(F)c2)CC1 assignedclass="Not satisfied"
testsmiles=C[C@@H](NC(=O)c1cccs1)C(=O)N1CCN(CCCOc2ccc(-c3noc(-c4cccc(C#N)c4)n3)c(F)c2)CC1 assignedclass="Not satisfied"
testsmiles=Cc1cccc(-c2nc(-c3ccc(OCCCN4CCN(C(=O)[C@@H](C)NC(=O)c5cccs5)CC4)cc3F)no2)c1 assignedclass="Not satisfied"
testsmiles=C[C@@H](NC(=O)c1ccc(Oc2ccccc2)cc1)C(=O)N1CCN(CCCOc2ccc(C(=O)C3CC3)cc2)CC1 assignedclass=Satisfied
testsmiles=C[C@@H](NC(=O)CCN1CCOCC1)C(=O)N1CCN(CCCOc2ccc(-c3noc(CC4CCCC4)n3)c(F)c2)CC1 assignedclass=Satisfied
testsmiles=CC(C)N[C@H](C)C(=O)N1CCN(CCCOc2ccc(C(=O)C3CC3)cc2)CC1 assignedclass="Not satisfied"
testsmiles=C[C@@H](NC(=O)[C@@H]1CCCO1)C(=O)N1CCN(CCCOc2ccc(-c3noc(-c4ccccc4)n3)c(F)c2)CC1 assignedclass="Not satisfied"
testsmiles=C[C@@H](NC(=O)c1ccc(F)cc1)C(=O)N1CCN(CCCOc2ccc(-c3noc(CC4CCCC4)n3)c(F)c2)CC1 assignedclass=Satisfied
testsmiles=C[C@@H](NC(=O)c1ccco1)C(=O)N1CCCN(CCCOc2ccc(-c3noc(C4CCCC4)n3)c(F)c2)CC1 assignedclass=Satisfied
testsmiles=C[C@@H](NC(=O)c1cccs1)C(=O)N1CCN(CCCOc2ccc(-c3noc(CCC(=O)N4CCCC4)n3)c(F)c2)CC1 assignedclass="Not satisfied"
testsmiles=O=C(c1ccc(OCCCN2CCN(C(=O)C[C@H]3CCCN3)CC2)cc1)C1CC1 assignedclass="Not satisfied"
testsmiles=N#Cc1ccc(C(=O)NCCC(=O)N2CCN(CCCOc3ccc(-c4noc(-c5ccccc5)n4)c(F)c3)CC2)cc1 assignedclass="Not satisfied"
testsmiles=COc1ccc(-c2nc(-c3ccc(OCCCN4CCN(C(=O)[C@@H](C)NC(=O)c5cccs5)CC4)cc3F)no2)cc1 assignedclass="Not satisfied"
testsmiles=C[C@@H](NC(=O)c1cccnc1)C(=O)N1CCN(CCCOc2ccc(-c3noc(-c4ccccc4)n3)c(F)c2)CC1 assignedclass=Satisfied
testsmiles=CCCCCC(=O)c1ccc(OCCCN2CCN(C(=O)[C@H](N)CO)CC2)cc1 assignedclass="Not satisfied"
testsmiles=C[C@@H](NC(=O)c1ccco1)C(=O)N1CCCN(CCCOc2ccc(-c3noc(-c4ccoc4)n3)c(F)c2)CC1 assignedclass=Satisfied
testsmiles=N#Cc1ccc(-c2ccc(OCCN3CCN(C(=O)[C@@H]4CCCN4)CC3)cc2)cc1 assignedclass="Not satisfied"
testsmiles=CC(C)CCc1nc(-c2ccc(OCCCN3CCCN(C(=O)[C@@H](C)NC(=O)c4ccco4)CC3)cc2F)no1 assignedclass=Satisfied
